Biological target: vanilloid receptor (VR1) (Homo sapiens, UniProt Q8NER1)
Construct: expressed in transfected cells; host or cells: CHO K1 cells (ECACC), stably transfected
Sequence (Q8NER1 whole entry): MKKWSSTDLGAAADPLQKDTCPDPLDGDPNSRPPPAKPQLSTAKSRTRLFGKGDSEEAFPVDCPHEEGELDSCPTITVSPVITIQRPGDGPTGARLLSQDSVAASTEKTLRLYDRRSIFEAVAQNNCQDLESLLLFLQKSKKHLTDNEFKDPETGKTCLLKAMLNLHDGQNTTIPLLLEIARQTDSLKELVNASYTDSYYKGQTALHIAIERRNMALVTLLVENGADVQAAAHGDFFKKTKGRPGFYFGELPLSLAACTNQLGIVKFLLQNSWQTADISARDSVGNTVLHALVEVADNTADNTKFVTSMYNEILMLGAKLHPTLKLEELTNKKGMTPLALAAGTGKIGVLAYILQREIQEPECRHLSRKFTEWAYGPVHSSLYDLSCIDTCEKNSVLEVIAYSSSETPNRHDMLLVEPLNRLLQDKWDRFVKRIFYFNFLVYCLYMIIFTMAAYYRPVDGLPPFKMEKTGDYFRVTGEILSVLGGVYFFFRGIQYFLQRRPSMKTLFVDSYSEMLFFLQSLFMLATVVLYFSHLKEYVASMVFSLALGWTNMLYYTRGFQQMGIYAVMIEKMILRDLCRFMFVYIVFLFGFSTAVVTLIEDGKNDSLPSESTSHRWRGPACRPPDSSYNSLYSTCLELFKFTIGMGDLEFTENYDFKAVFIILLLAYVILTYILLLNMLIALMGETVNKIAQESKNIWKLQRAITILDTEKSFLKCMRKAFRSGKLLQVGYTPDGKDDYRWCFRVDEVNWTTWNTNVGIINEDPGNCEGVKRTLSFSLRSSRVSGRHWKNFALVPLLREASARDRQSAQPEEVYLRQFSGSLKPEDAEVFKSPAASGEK
Test: Functional testing on vanilloid receptor (VR1): FLIPR Ca2+ inflow assay in CHO K1 cells stably transfected with the VR1 gene
Type: cell-based
Conditions: CHO-K1, inhibition compared to 10 μM CP (capsaicin)
Below, each entry is listed with its recorded inhibition at 10 µM.
QUANTITY MEASURED: inhibition at 10 µM (%)

>>> recorded_value("O=C(Nc1ccc(C(F)(F)F)cc1)N1CCC2(CC1)CC(c1cccc(F)c1)=NO2")
60
>>> recorded_value("COc1cccc(C2=NOC3(CCN(C(=O)Nc4ccc(C(C)C)cc4)CC3)C2)c1")
5.49
>>> recorded_value("CC(C)(C)c1ccc(NC(=O)N2CCC3(CC2)CC(c2ccccc2F)=NO3)cc1")
-3
>>> recorded_value("CC(C)(C)c1ccc(CCC(=O)N2CCC3(CC2)CC(c2ccccc2)=NO3)cc1")
-4
>>> recorded_value("O=C(Nc1ccccc1)N1CCC2(CC1)CC(c1ccc(Cl)cc1)=NO2")
13.4
>>> recorded_value("CC(C)(C)c1ccc(NC(=O)N2CCC3(CC2)CC(c2cccc(Cl)c2)=NO3)cc1")
29
>>> recorded_value("CC1CN(C(=O)Nc2ccc(C(C)(C)C)cc2)CCC12CC(c1ccccc1F)=NO2 (centres unmarked)")
50
>>> recorded_value("O=C(Nc1cccc(C(F)(F)F)c1)N1CCC2(CC1)CC(c1ccccc1)=NO2")
-7.62
>>> recorded_value("COc1cccc(C2=NOC3(CCN(C(=O)Nc4ccc(Cl)cc4)CC3)C2)c1")
25
>>> recorded_value("COc1cccc(C2=NOC3(CCN(C(=O)C#Cc4ccc(C(F)(F)F)cc4)CC3)C2)c1")
12
>>> recorded_value("O=C(Nc1ccc(I)cc1)N1CCC2(CC1)CC(c1ccccc1)=NO2")
-4.4
>>> recorded_value("CC(C)(C)c1ccc(C=CC(=O)N2CCC3(CC2)CC(c2ccccc2)=NO3)cc1")
36
>>> recorded_value("O=C(Nc1ccc(OC(F)(F)F)cc1)N1CCC2(CC1)CC(c1ccccc1)=NO2")
11
>>> recorded_value("COc1cccc(C2=NOC3(CCN(C(=O)Nc4ccc(OC(F)(F)F)cc4)CC3)C2)c1")
3.09
>>> recorded_value("O=C(Nc1ccc(C(F)(F)F)cc1)N1CCC2(CC1)CC(c1ccccc1)=NO2")
9.23
>>> recorded_value("Cc1ccc(C2=NOC3(CCN(C(=O)Nc4ccc(Cl)c(C(F)(F)F)c4)CC3)C2)cc1")
-10.3
>>> recorded_value("COc1cccc(C2=NOC3(CCN(C(=O)Nc4cccc(F)c4)CC3)C2)c1")
-25
